test: Body weight / toxicity of a single intraperitoneal injection in HCT-116 colon tumor-bearing nude mice; conditions: Day 23; single IP injection (QD×1); D1 and D2 400 mg/kg, D3 350 mg/kg, D4 300 mg/kg
value kind: Average rate of weight change of the animals (%)
Field format: number, assumed %, no unit text.

// query I am curious: what Average rate of weight change of the animals value has been reported for CCCCOC(=O)Nc1ccn(C2OC(COC(=O)CCC(=O)OC[C@H]3O[C@@H](n4ccc(NC(=O)OCc5ccccc5)nc4=O)C(F)(F)[C@@H]3O)C(O)C2(F)F)c(=O)n1 (stereo in doubt) ?
// result 9.37
